measuredOn: NMDA receptor (ion-channel / PCP site), rat forebrain membranes
experimentalDetails: enhancement of [3H]MK-[…]) binding
testContext: co-agonist (glycine) site; no added glutamate; 5 mM Tris-HCl pH 7.4, 25 °C, 20 h
assayMetric: EC50 (nM)

>>> observedresult("NCC(=O)O")
1050

###

System: Na+ channel (site 2)
experimentalDetails: radioligand competition
testContext: read-out: IC50 (M) ^a
assayMetric: IC50

>>> observedresult("COc1cccc(N(C)C(=N)Nc2cc(SC)ccc2Cl)c1 [GMOM]")
"3.9e-06 M"

###

measuredOn: NMDA receptor (ion-channel / PCP site), rat forebrain membranes
experimentalDetails: enhancement of [3H]MK-[…]) binding
testContext: agonist (glutamate) site; no added glycine; 5 mM Tris-HCl pH 7.4, 25 °C, 20 h
pEC50: −log10 of the molar value.
assayMetric: pEC50

>>> observedresult("N[C@@H](CCC(=O)O)C(=O)O [L-glutamate]")
6.70

Origin of the recorded values: paper PMC6381215
